The values you see were collected from patent US20240209076A1.

- TARGET_OF_ASSAY: T1, recombinant human IL-6 (human, UniProt P05231 30-212)
- T1 construct: Flowed in solution over the captured antibodies
- EXPERIMENT_SUMMARY: SPR (Biacore), supernatant IgG on Protein A, 25 C
ASSAY_METRIC: pKd
pKd is defined as minus the log10 of a concentration measured in mol/L.

anti-IL-6 antibody, heavy chain F27R, light chain WT (antibody, IgG1, V domains shown, Full IgG1 tested; V domains derived as in m2) VH: EVQLVESGGGLVQPGGSLRLSCAASGRTFSPFAMSWVRQAPGKGLEWVAKISPGGSWTYYSDTVTGRFTFSLDTSKSTAYLQMNSLRAEDTAVYYCARQLWGYYALDIWGQGTLVTVSS VL: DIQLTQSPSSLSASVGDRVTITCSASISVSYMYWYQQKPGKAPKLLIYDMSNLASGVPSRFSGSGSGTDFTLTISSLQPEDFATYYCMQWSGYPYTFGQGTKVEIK | 9.38
anti-IL-6 antibody, heavy chain T65Y, light chain WT (antibody, IgG1, V domains shown, Full IgG1 tested; V domains derived as in m2) VH: EVQLVESGGGLVQPGGSLRLSCAASGFTFSPFAMSWVRQAPGKGLEWVAKISPGGSWTYYSDTVYGRFTFSLDTSKSTAYLQMNSLRAEDTAVYYCARQLWGYYALDIWGQGTLVTVSS VL: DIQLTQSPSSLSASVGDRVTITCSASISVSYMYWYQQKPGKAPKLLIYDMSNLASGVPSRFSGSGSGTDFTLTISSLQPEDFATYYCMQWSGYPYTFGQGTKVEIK | 9.56

Please examine the following record next.
// pKd lookup, key: anti-IL-6 antibody, heavy chain F29H, light chain WT (antibody, IgG1, V domains shown, Full IgG1 tested; V domains derived as in m2) VH: EVQLVESGGGLVQPGGSLRLSCAASGFTHSPFAMSWVRQAPGKGLEWVAKISPGGSWTYYSDTVTGRFTFSLDTSKSTAYLQMNSLRAEDTAVYYCARQLWGYYALDIWGQGTLVTVSS VL: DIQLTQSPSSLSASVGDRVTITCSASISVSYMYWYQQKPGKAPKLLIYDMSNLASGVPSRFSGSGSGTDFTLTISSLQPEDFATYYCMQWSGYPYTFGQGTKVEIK
9.56
